biological target: Gal4S(b1-4)GlcNAc; experiment: glycan array binding signal (z-score within array); higher = stronger binding; settings: glycan notation: IUPAC condensed, linker removed
The entries come from a sample that favours the strongest signals as a whole.
measured_parameter: glycan array binding signal (z-score)
No unit in the answer, only the number.

Give me measured glycan array binding signal (z-score), please, for this binder: ArathEULS3 TAP (Arabidopsis thaliana) (protein) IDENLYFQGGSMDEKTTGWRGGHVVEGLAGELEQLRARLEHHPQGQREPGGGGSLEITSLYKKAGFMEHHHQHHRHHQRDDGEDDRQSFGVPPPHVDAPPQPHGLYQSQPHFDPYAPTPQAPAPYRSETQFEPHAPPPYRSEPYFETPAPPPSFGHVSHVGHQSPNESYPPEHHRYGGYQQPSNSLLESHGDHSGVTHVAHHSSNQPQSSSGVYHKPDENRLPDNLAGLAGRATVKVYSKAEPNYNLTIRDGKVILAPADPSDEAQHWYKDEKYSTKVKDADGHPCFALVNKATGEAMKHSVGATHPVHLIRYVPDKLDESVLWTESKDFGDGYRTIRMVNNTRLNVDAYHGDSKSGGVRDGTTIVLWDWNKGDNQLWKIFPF 0.737

Give me measured glycan array binding signal (z-score), please, for this binder: AT1G73650(15) (Arabidopsis thaliana), F4HRY1 (protein) MGTVLDSHFLALTAIVTVIYQFIFFVITALFKFDQVTDFAGSTNFVILAVLTLVLKASWHFRQIVLTLLVVVWGLRLGIFLLMETRILQWGEDRRFDEQRGNIVRLIIFWTLQAVWVWTVSLPLTLVNASDGGGSLKPADVIGWTMETWVFGFLIEAAADQQKLSFKNSPENRGKWCDVGVWKYSRHPNYFGEMETLLWWGIFVAASPVLEGAEYLVIFGPLFLTLLLLFVSGIPLLEASADKKHGNSGAYRSYKKTTSPLILFPRGVYGNLPGWFKTVFLFEFPFYSRNLPQEGRLQNSKEKEVKDD -0.333

Origin of measurements: the supplement of paper PMC8728848
